Sourced from ChEMBL document CHEMBL5058577

- Test system: U2OS
- assay-remarks: Multiplex assay against U2OS
- Type: toxicity, cell-based
- stated-conditions: human, 48 h, 1 µM, compound concentration 1 uM, replicate 1
measure: Population Hoechst High Intensity Objects (%)
Give just the number in %; leave the unit off.

Please review the following examples before continuing.
{"columns": ["molecule", "experimental-value"],
 "data": [
  ["CCC(=O)OCC(=O)[C@@]1(OC(=O)CC)[C@@H](C)C[C@H]2[C@@H]3CCC4=CC(=O)C=C[C@]4(C)[C@@]3(Cl)[C@@H](O)C[C@@]21C [BECLOMETHASONE DIPROPIONATE]", 2],
  ["Cl.Cl.OCCOCCN1CCN(C(c2ccccc2)c2ccc(Cl)cc2)CC1 (configuration not stated) [HYDROXYZINE HYDROCHLORIDE]", 2]
]}

# query: Population Hoechst High Intensity Objects (%) of entry CN(C)C(=O)Cn1cc(-c2ccc(-c3nnc4ccccn34)cc2)cn1
2

# query: Population Hoechst High Intensity Objects (%) of entry CCn1c(-c2nc3cc(C(=O)N4CCCC(N)C4)ccc3n2C)cc2ccccc21.Cl (configuration not stated)
2

# query: Population Hoechst High Intensity Objects (%) of entry COc1cc2nc(N3CCN(C(=O)COc4c(OC)cccc4C(C)C)CC3)nc(N)c2cc1OC.Cl.Cl
2

# query: Population Hoechst High Intensity Objects (%) of entry COc1cc(C(=O)N2CC[C@@H](O)[C@@H](N)C2)cc2nc(-c3cc4ccccc4n3CC3CC3)n(C)c12.Cl
2

# query: Population Hoechst High Intensity Objects (%) of entry CCc1nn2c(C)cc(C)nc2c1Cc1ccc(-c2nnc(C3CCNCC3)o2)cc1
2

# query: Population Hoechst High Intensity Objects (%) of entry N[C@](CC1c2ccccc2Oc2ccccc21)(C(=O)O)[C@H]1C[C@@H]1C(=O)O
2

# query: Population Hoechst High Intensity Objects (%) of entry C=CCN1C[C@H](C(=O)N(CCCN(C)C)C(=O)NCC)C[C@@H]2c3cccc4[nH]cc(c34)C[C@H]21
2

# query: Population Hoechst High Intensity Objects (%) of entry Cc1nn(C)c2nc(NNC(=O)Nc3cc(Cl)nc(Cl)c3)cc(C(C)C)c12
2

# query: Population Hoechst High Intensity Objects (%) of entry COC(c1ccccc1)(c1ccccc1)[C@H](Oc1nc(C)cc(C)n1)C(=O)O
2

# query: Population Hoechst High Intensity Objects (%) of entry CN1C[C@H](C(=O)N[C@]2(C)O[C@@]3(O)[C@@H]4CCCN4C(=O)[C@H](Cc4ccccc4)N3C2=O)C[C@@H]2c3cccc4[nH]cc(c34)C[C@H]21.CS(=O)(=O)O [DIHYDROERGOTAMINE MESYLATE]
2

----------
- Test system: HEK-293T
- assay-remarks: Multiplex assay against HEK293T
- Type: toxicity, cell-based
- stated-conditions: human, 24 h, 10 µM, compound concentration 10 uM, replicate 2
Non-standard residues stand in square brackets, D forms with d. Residues, ends and D or L forms follow the SMILES beside them.
measure: Population Apoptotic (%)
Give just the number in %; leave the unit off.

{"columns": ["molecule", "Population Apoptotic (%)"],
 "data": [
  ["CC(C)(C)c1ccc(CSc2cnn(C(C)(C)C)c(=O)c2Cl)cc1", 46],
  ["O=C(Nc1cc(-c2ccccc2)nn1-c1ccccc1F)c1ccc([N+](=O)[O-])cc1", 22],
  ["Cc1c(Cc2ccc3ccccc3n2)c2cc(F)ccc2n1CC(=O)O", 37],
  ["COc1cc(OC2CCN(C(C)=O)CC2)ccc1C(=O)N1CCC(N2C(=O)OCc3ccccc32)CC1", 49],
  ["CC(C)C[C@@H]1NC(=O)[C@@H](C(C)C)NC(=O)[C@@H]2CCCN2C(=O)[C@@H](CC(=O)O)NC(=O)[C@@H](Cc2c[nH]c3ccccc23)NC1=O [BQ-123] (cyclo(L[dW][dD]P[dV]))", 57],
  ["COC(c1ccccc1)(c1ccccc1)[C@H](Oc1nc(C)cc(C)n1)C(=O)O", 44],
  ["Nc1nc(-c2ccco2)c2cnn(Cc3ccccc3F)c2n1", 35],
  ["COCCCN1CCC(NC(=O)c2cc(Cl)c(N)c3c2OCC3)CC1 [PRUCALOPRIDE]", 50]
]}

# query: Population Apoptotic (%) of entry N[C@](CC1c2ccccc2Oc2ccccc21)(C(=O)O)[C@H]1C[C@@H]1C(=O)O
40

----------
Overview of reported Population Healthy Nuclei (%) across a group of compounds:
- System: Fibroblast
- assay-remarks: Multiplex assay against human fibroblast
- Format: toxicity, cell-based
- stated-conditions: 48 h, 1 µM, compound concentration 1 uM, replicate 2
Give just the number in %; leave the unit off.

Please review the following examples before continuing.
{"columns": ["compound", "tested-system", "Population Healthy Nuclei (%)"],
 "data": [
  ["O=c1ccc2ccc(OCCCCN3CCN(c4cccc5sccc45)CC3)cc2[nH]1 [BREXPIPRAZOLE]", "Fibroblast", 51],
  ["Cc1sc2c(c1C)C(c1ccc(Cl)cc1)=N[C@H](CC(=O)OC(C)(C)C)c1nnc(C)n1-2", "Fibroblast", 49],
  ["COc1c(Nc2ccc(S(C)(=O)=O)nc2C)ncnc1OC1CCN(C(=O)OC(C)C)CC1 [ADP-597]", "Fibroblast", 51],
  ["O=C(NCCNCC(O)COc1ccc(O)cc1)N1CCOCC1.O=C(NCCNCC(O)COc1ccc(O)cc1)N1CCOCC1.O=C(O)/C=C/C(=O)O (centres undefined) [XAMOTEROL FUMARATE]", "Fibroblast", 46],
  ["CCCCCCNC(=O)Nc1ccc(S(=O)(=O)Nc2ccc(CCNC[C@H](O)COc3ccc(O)cc3)cc2)cc1 [L-755507]", "Fibroblast", 58],
  ["CCC(=O)OCC(=O)[C@@]1(OC(=O)CC)[C@@H](C)C[C@H]2[C@@H]3CCC4=CC(=O)C=C[C@]4(C)[C@@]3(Cl)[C@@H](O)C[C@@]21C [BECLOMETHASONE DIPROPIONATE]", "Fibroblast", 41]
]}

# query: Population Healthy Nuclei (%) of entry Nc1nc(CC(=O)Nc2ccc(CCNC[C@H](O)c3ccccc3)cc2)cs1 [MIRABEGRON]
52

# query: Population Healthy Nuclei (%) of entry CCn1c(-c2nc3cc(C(=O)N4CCCC(N)C4)ccc3n2C)cc2ccccc21.Cl (centres undefined)
51

# query: Population Healthy Nuclei (%) of entry COC(c1ccccc1)(c1ccccc1)[C@H](Oc1nc(C)cc(C)n1)C(=O)O [AMBRISENTAN]
54

# query: Population Healthy Nuclei (%) of entry CC(C)(C)c1ccc(CSc2cnn(C(C)(C)C)c(=O)c2Cl)cc1 [PYRIDABEN]
41

# query: Population Healthy Nuclei (%) of entry COc1ccc2[nH]c(I)c(CCNC(C)=O)c2c1 [IODOMELATONIN]
55

# query: Population Healthy Nuclei (%) of entry CN1CCC(C(=O)c2cccc(NC(=O)c3c(F)cc(F)cc3F)n2)CC1
46

# query: Population Healthy Nuclei (%) of entry C[C@H](NC(=O)CNC(=O)c1cccc(Cl)c1)c1ccccc1
52

# query: Population Healthy Nuclei (%) of entry Cc1cc(NC(=O)NCCN2CCC(O)(Cc3ccccc3)CC2)c2ccccc2n1 [PALOSURAN]
44

# query: Population Healthy Nuclei (%) of entry N[C@](CC1c2ccccc2Oc2ccccc21)(C(=O)O)[C@H]1C[C@@H]1C(=O)O
48

# query: Population Healthy Nuclei (%) of entry O=C(O)CCC/C=C\CC1C(O)CC(O)C1/C=C/C(O)COc1cccc(Cl)c1 (centres undefined) [CLOPROSTENOL]
43

# query: Population Healthy Nuclei (%) of entry C=CCN1C[C@H](C(=O)N(CCCN(C)C)C(=O)NCC)C[C@@H]2c3cccc4[nH]cc(c34)C[C@H]21 [CABERGOLINE]
54

# query: Population Healthy Nuclei (%) of entry Cc1cc(-c2ccc3c(c2)CC[C@H]3N2CC3(CCN(C(=O)Cc4cn5cc(C)sc5n4)CC3)C2)ncn1 [PF-5190457]
47

# query: Population Healthy Nuclei (%) of entry COCCn1c(C)c(C)s/c1=N\C(=O)C1C(C)(C)C1(C)C
56

----------
- System: HEK-293T
- assay-remarks: Multiplex assay against HEK293T
- Assay type: toxicity, cell-based
- stated-conditions: human, 12 h, 10 µM, compound concentration 10 uM, replicate 2
Binary call on Total Cell Count with cut-off 300: strictly below means rule met, and equality or higher means rule not met.

Reference set (5 entries):
{"columns": ["molecule", "group"],
 "data": [
  ["O=c1ccc2ccc(OCCCCN3CCN(c4cccc5sccc45)CC3)cc2[nH]1 [BREXPIPRAZOLE]", "rule met"],
  ["CN1CCC(C(=O)c2cccc(NC(=O)c3c(F)cc(F)cc3F)n2)CC1", "rule not met"],
  ["CC(F)(F)CN1CCOc2c(nn(-c3ccccc3Cl)c2-c2ccc(Cl)cc2)C1=O", "rule not met"],
  ["CCC(=O)OCC(=O)[C@@]1(OC(=O)CC)[C@@H](C)C[C@H]2[C@@H]3CCC4=CC(=O)C=C[C@]4(C)[C@@]3(Cl)[C@@H](O)C[C@@]21C [BECLOMETHASONE DIPROPIONATE]", "rule met"],
  ["O=C(NCCNCC(O)COc1ccc(O)cc1)N1CCOCC1.O=C(NCCNCC(O)COc1ccc(O)cc1)N1CCOCC1.O=C(O)/C=C/C(=O)O (stereo not given) [XAMOTEROL FUMARATE]", "rule not met"]
]}

Pending molecule:
Threshold test, Total Cell Count < 300: CSc1nc(NC2CCCC2)c([N+](=O)[O-])c(NC2CCCC2)n1 [GS-39783]
rule not met
